- Assay Remarks: Pharmacokinetic parameters for Carvedilol following oral administration of Carvedilol tablets.
- Assay type: ADME, organism-based
- Recorded Conditions: human, in vivo, dosed compound id 39, dosed compound name CARVEDILOL, tissue Plasma

>  <Compound>
COc1ccccc1OCCNCC(O)COc1cccc2[nH]c3ccccc3c12 (stereo unspecified) [CARVEDILOL]

>  <CL/F>
500 to 700 mL/min

$$$$

* * *

- Assay Remarks: Pharmacokinetic parameters for Carvedilol following oral administration of Carvedilol tablets.
- Assay type: ADME, organism-based
- Recorded Conditions: human, in vivo, dosed compound id 39, dosed compound name CARVEDILOL, gender male and female, tissue Plasma, read-out: t1/2(app)
Endpoint: half-life

>  <Molecule>
COc1ccccc1OCCNCC(O)COc1cccc2[nH]c3ccccc3c12 (stereo unspecified)

>  <Endpoint>
half-life

>  <Data Value>
5 to 9 h

$$$$
